The reported measurements were obtained from patent US12466809B2.

# experimentalSystem: CDK2/Cyclin A (Homo sapiens (Human), UniProt P24941)
# assayComment: Invitrogen Z'-LYTE kinase assay CDK2/Cyclin A (assay ID 315, Km app, 10-point titration)
# conditionSummary: Km app ATP
propertyName: IC50 (nM)

Below are worked cases with known answers.
[
  {
    "compound": "NC(=O)c1c(F)cccc1Nc1nc(NC2CCN(S(=O)(=O)CCNC(=O)CCOCCOCCOCCOCCNc3cccc4c3C(=O)N(C3CCC(=O)NC3=O)C4=O)CC2)ncc1Br (centres unmarked)",
    "result": 6.4
  },
  {
    "compound": "Cc1ncsc1-c1ccc([C@H](C)NC(=O)[C@@H]2C[C@@H](O)CN2C(=O)[C@@H](NC(=O)CCOCCOCCOCCC(=O)NCCS(=O)(=O)N2CCC(Nc3ncc(Br)c(Nc4cccc(F)c4C(N)=O)n3)CC2)C(C)(C)C)cc1",
    "result": 7.5
  },
  {
    "compound": "O=C(CCCCCCCCOc1cccc2c1C(=O)N(C1CCC(=O)NC1=O)C2=O)NCCS(=O)(=O)N1CCC(Nc2ncc(Br)c(Nc3cccc4c3C(=O)NC4)n2)CC1 (centres unmarked)",
    "result": 10.5
  }
]

P = NC(=O)c1c(F)cccc1Nc1nc(NC2CCN(S(=O)(=O)CCNC(=O)CCCCCCCCOc3cccc4c3C(=O)N(C3CCC(=O)NC3=O)C4=O)CC2)ncc1Br (centres unmarked)
Q = Cc1ncsc1-c1ccc([C@H](C)NC(=O)[C@@H]2C[C@@H](O)CN2C(=O)[C@@H](NC(=O)CCCCC(=O)NCCS(=O)(=O)N2CCC(Nc3ncc(Br)c(Nc4cccc(F)c4C(N)=O)n3)CC2)C(C)(C)C)cc1
Problem: Pick the one with the larger IC50: P vs Q Return value: the label identifying the chosen record.
Solution: P
(P: 28.7 nM, Q: 9.1 nM)

---

# experimentalSystem: CDK5/p25 (Homo sapiens (Human))
# assayComment: Invitrogen Z'-LYTE kinase assay CDK5/p25 (assay ID 318, Km app, 10-point titration)
# Type: biochemical
# conditionSummary: CDK5/p25, Km app ATP
propertyName: IC50 (nM)

[
  {
    "compound": "NC(=O)c1c(F)cccc1Nc1nc(NC2CCN(S(=O)(=O)CCNC(=O)CCOCCOCCOCCOCCNc3cccc4c3C(=O)N(C3CCC(=O)NC3=O)C4=O)CC2)ncc1Br (stereo not shown)",
    "IC50 / nM": 8.1
  },
  {
    "compound": "Cc1cc(S(=O)(=O)NCCCCCCCCCCNC(=O)COc2cccc3c2C(=O)N(C2CCC(=O)NC2=O)C3=O)ccc1Nc1ncc(Br)c(Nc2cccc(F)c2C(N)=O)n1 (stereo not shown)",
    "IC50 / nM": 18.2
  },
  {
    "compound": "NC(=O)c1c(F)cccc1Nc1nc(NC2CCN(S(=O)(=O)CCNC(=O)CCOCCOCCOCCOCCNc3cccc4c3C(=O)N(C3CCC(=O)NC3=O)C4=O)CC23CC3)ncc1Br (stereo not shown)",
    "IC50 / nM": 71.3
  }
]

a = NC(=O)c1c(F)cccc1Nc1nc(NC2CCN(S(=O)(=O)CCNC(=O)CCCCCCCCOc3cccc4c3C(=O)N(C3CCC(=O)NC3=O)C4=O)CC2)ncc1Br (stereo not shown)
b = O=C(CCCCCCCCOc1cccc2c1C(=O)N(C1CCC(=O)NC1=O)C2=O)NCCS(=O)(=O)N1CCC(Nc2ncc(Br)c(Nc3cccc4c3C(=O)NC4)n2)CC1 (stereo not shown)
Problem: For this pair, a and b , which shows a numerically higher IC50? Give the label under which the chosen entry appears.
Solution: a

A = NC(=O)c1c(F)cccc1Nc1nc(N[C@@H]2CCCN(S(=O)(=O)CCNC(=O)CCCCCCCCOc3cccc4c3C(=O)N(C3CCC(=O)NC3=O)C4=O)C2)ncc1Br (stereo partly shown)
B = NC(=O)c1c(F)cccc1Nc1nc(NC2CCN(S(=O)(=O)CCNC(=O)CCOCCOCCOCCOCCOCCOCCOCCOCCNc3cccc4c3C(=O)N(C3CCC(=O)NC3=O)C4=O)CC2)ncc1Br (stereo not shown)
Problem: Between the entries labeled A and B , whose measured IC50 is lower? Kindly state the label of the option you pick.
Solution: B

---

# experimentalSystem: CDK5/p25 (Homo sapiens (Human), UniProt Q00535)
# Sequence (Q00535 whole entry): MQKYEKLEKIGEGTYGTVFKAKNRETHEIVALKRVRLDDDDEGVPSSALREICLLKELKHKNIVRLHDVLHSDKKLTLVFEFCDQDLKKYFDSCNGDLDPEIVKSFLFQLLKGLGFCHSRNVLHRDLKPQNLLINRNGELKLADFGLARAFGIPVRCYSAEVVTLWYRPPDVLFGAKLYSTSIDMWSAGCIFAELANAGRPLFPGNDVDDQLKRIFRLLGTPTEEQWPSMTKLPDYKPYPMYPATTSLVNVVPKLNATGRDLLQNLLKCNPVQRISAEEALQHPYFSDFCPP
# Sequence (Q15078 99-307 partner): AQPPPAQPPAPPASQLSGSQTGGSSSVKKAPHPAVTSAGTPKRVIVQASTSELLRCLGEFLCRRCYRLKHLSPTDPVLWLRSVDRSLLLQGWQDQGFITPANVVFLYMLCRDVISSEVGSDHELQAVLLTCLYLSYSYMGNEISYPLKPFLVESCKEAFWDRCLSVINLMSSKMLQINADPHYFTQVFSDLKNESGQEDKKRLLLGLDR
# assayComment: Invitrogen Z'-LYTE kinase assay CDK5/p25 (assay ID 318, Km app, 10-point titration)
# conditionSummary: CDK5/p25, Km app ATP
propertyName: IC50 (nM)

# annotated cases, reported IC50 shown
[
  {
    "compound": "Cc1cc(Nc2ncc(Br)c(Nc3cccc(F)c3C(N)=O)n2)ccc1S(=O)(=O)NCCOCCOCCOCCOCCNc1cccc2c1C(=O)N(C1CCC(=O)NC1=O)C2=O (centres unmarked) [Compound 25]",
    "IC50 (nM)": 7.1
  },
  {
    "compound": "Cc1ncsc1-c1ccc([C@H](C)NC(=O)[C@@H]2C[C@@H](O)CN2C(=O)[C@@H](NC(=O)CCC(=O)NCCS(=O)(=O)N2CCC(Nc3ncc(Br)c(Nc4cccc(F)c4C(N)=O)n3)CC2)C(C)(C)C)cc1 [Compound 12]",
    "IC50 (nM)": 3.7
  },
  {
    "compound": "O=C(CCCCCCCCC#Cc1cccc2c1CN(C1CCC(=O)NC1=O)C2=O)NCCS(=O)(=O)N1CCC(Nc2ncc(Br)c(Nc3cccc4c3OCO4)n2)CC1 (centres unmarked) [Compound 16]",
    "IC50 (nM)": 4370
  },
  {
    "compound": "NC(=O)c1c(F)cccc1Nc1nc(NC2CCN(S(=O)(=O)CCNC(=O)CCCCCCCCCCc3cccc4c3CN(C3CCC(=O)NC3=O)C4=O)CC2)ncc1Br (centres unmarked) [Compound 15]",
    "IC50 (nM)": 18.2
  }
]

A = NC(=O)c1c(F)cccc1Nc1nc(NC2CCN(S(=O)(=O)CCNC(=O)CCOCCNc3cccc4c3C(=O)N(C3CCC(=O)NC3=O)C4=O)CC2)ncc1Br (centres unmarked) [Compound 2]
B = O=C(CCOCCOCCOCCOCCNc1cccc2c1C(=O)N(C1CCC(=O)NC1=O)C2=O)NCCS(=O)(=O)N1CCC(Nc2ncc(Br)c(Nc3cccc4c3C(=O)NC4)n2)CC1 (centres unmarked) [Compound 20]
Problem: Which of the two items, A and B , has the greater recorded IC50? Pick one and reply with its label.
Solution: B
(B: 5.8 nM, A: 3.8 nM)

1 = NC(=O)c1c(F)cccc1Nc1nc(NC2CCN(S(=O)(=O)CCNC(=O)CCOCCOCCOc3cccc4c3C(=O)N(C3CCC(=O)NC3=O)C4=O)CC2)ncc1Br (centres unmarked) [Compound 3]
2 = NC(=O)c1c(F)cccc1Nc1nc(NC2CCN(S(=O)(=O)CCNC(=O)CCCCCCCCC#Cc3cccc4c3CN(C3CCC(=O)NC3=O)C4=O)CC2)ncc1Br (centres unmarked) [Compound 14]
Problem: Which value of IC50 is numerically greater: that of 1 or that of 2 ? Your answer should be the label attached to the chosen record.
Solution: 2
(2: 31.2 nM, 1: 4.8 nM)

a = Cn1ncc(Nc2nc(NC3CCN(S(=O)(=O)CCNC(=O)CCCCCCCCOc4cccc5c4C(=O)N(C4CCC(=O)NC4=O)C5=O)CC3)ncc2Br)c1C(N)=O (centres unmarked) [Compound 22]
b = Cc1cc(S(=O)(=O)NCCCCN2CCN(C(=O)COc3cccc4c3C(=O)N(C3CCC(=O)NC3=O)C4=O)CC2)ccc1Nc1ncc(Br)c(Nc2cccc(F)c2C(N)=O)n1 (centres unmarked) [Compound 48]
Problem: Returns the identifier with the smallest measured IC50 among a and b . Respond with the label that goes with your answer.
Solution: b
(b: 2.9 nM, a: 5.7 nM)

1 = O=C(CCCCCCCCOc1cccc2c1C(=O)N(C1CCC(=O)NC1=O)C2=O)NCCS(=O)(=O)N1CCC(Nc2ncc(Br)c(Nc3cccc4c3OCO4)n2)CC1 (centres unmarked) [Compound 17]
2 = Cc1ncsc1-c1ccc([C@H](C)NC(=O)[C@@H]2C[C@@H](O)CN2C(=O)[C@@H](NC(=O)CCOCCOCCC(=O)NCCS(=O)(=O)N2CCC(Nc3ncc(Br)c(Nc4cccc(F)c4C(N)=O)n3)CC2)C(C)(C)C)cc1 [Compound 11]
3 = NC(=O)c1c(F)cccc1Nc1nc(NC2CCN(S(=O)(=O)CCNC(=O)CCCCCCCOc3cccc4c3C(=O)N(C3CCC(=O)NC3=O)C4=O)CC2)ncc1Br (centres unmarked) [Compound 6]
Problem: Ascending by IC50, please. Sort and list the labels as requested.
Solution: 2, 3, 1

A = NC(=O)c1c(F)cccc1Nc1nc(NC2CCN(S(=O)(=O)CCNC(=O)CCC(=O)NCCCCCNc3cccc4c3C(=O)N(C3CCC(=O)NC3=O)C4=O)CC2)ncc1Br (centres unmarked) [Compound 13]
B = O=C(CCOCCOCCOCCOCCNc1cccc2c1C(=O)N(C1CCC(=O)NC1=O)C2=O)NCCS(=O)(=O)N1CCC(Nc2ncc(Br)c(N3CCCc4ccccc43)n2)CC1 (centres unmarked) [Compound 18]
Problem: Lower value for measured IC50? Options: A , B # answer = label of selected item
Solution: A

P = Cc1ncsc1-c1ccc([C@H](C)NC(=O)[C@@H]2C[C@@H](O)CN2C(=O)[C@@H](NC(=O)CCOCCOCCOCCC(=O)NCCS(=O)(=O)N2CCC(Nc3ncc(Br)c(Nc4cccc(F)c4C(N)=O)n3)CC2)C(C)(C)C)cc1 [Compound 9]
Q = NC(=O)c1c(F)cccc1Nc1nc(Nc2ccc(S(=O)(=O)NCCOCCOCCOCCOCCNc3cccc4c3C(=O)N(C3CCC(=O)NC3=O)C4=O)cc2)ncc1Br (centres unmarked) [Compound 23]
R = Cc1cc(S(=O)(=O)NCCOCCOCCOCCOCCNC(=O)COc2cccc3c2C(=O)N(C2CCC(=O)NC2=O)C3=O)ccc1Nc1ncc(Br)c(Nc2cccc(F)c2C(N)=O)n1 (centres unmarked) [Compound 46]
S = NC(=O)c1c(F)cccc1Nc1nc(NC2CCN(S(=O)(=O)CCNC(=O)CCCCCOc3cccc4c3C(=O)N(C3CCC(=O)NC3=O)C4=O)CC2)ncc1Br (centres unmarked) [Compound 7]
Problem: Your job: order these 4 records by IC50, ascending. // list labels; follow requested order
Solution: R, P, Q, S
(R: 1.4 nM, P: 4.1 nM, Q: 7 nM, S: 13.7 nM)
